Source of measurements: ChEMBL document CHEMBL4118096

# Assay: Safety index, ratio of EC10 for hemolytic activity in sheep RBC to MIC for Candida albicans
# Assay type: toxicity
# Details: sheep red blood cells
Where a SMILES comes first, the peptide text is derived from it. The star is where a group is joined. Benzoyl(4-B(OH)2) = O=C(c1ccc(B(O)O)cc1)*; Acridin9yl = c1ccc2c(*)c3ccccc3nc2c1
Item-by-item account of selectivity ratio

Use the examples below as a reference point.
Compound	selectivity ratio
CC(C)C[C@H](NC(=O)[C@H](CCCCN)NC(=O)[C@H](CCCCN)NC(=O)[C@H](CCCCN)NC(=O)[C@H](CCCCN)NC(=O)[C@H](CCCCN)NC(=O)[C@H](CCCCN)NC(=O)[C@@H](N)CCCCN)C(=O)N[C@@H](CCCCNc1c2ccccc2nc2ccccc12)C(=O)N[C@@H](Cc1ccc(O)cc1)C(=O)O (H-KKKKKKKLK(Acridin9yl)Y-OH)	> 100
CC(C)C[C@H](NC(=O)[C@H](CCCCNc1c2ccccc2nc2ccccc12)NC(=O)[C@H](CCCCN)NC(=O)[C@H](CCCCN)NC(=O)[C@H](CCCCN)NC(=O)[C@H](CCCCN)NC(=O)[C@H](CCCCN)NC(=O)[C@@H](N)CCCCN)C(=O)N[C@@H](CCCCN)C(=O)N[C@@H](Cc1ccc(O)cc1)C(=O)O (H-KKKKKKK(Acridin9yl)LKY-OH)	> 100

Fill in: selectivity ratio of CC(C)C[C@H](NC(=O)[C@H](CCCCN)NC(=O)[C@H](CCCCN)NC(=O)[C@H](CCCCNc1c2ccccc2nc2ccccc12)NC(=O)[C@H](CCCCN)NC(=O)[C@H](CCCCN)NC(=O)[C@H](CCCCNc1c2ccccc2nc2ccccc12)NC(=O)[C@@H](N)CCCCN)C(=O)N[C@@H](CCCCNC(=O)c1ccc(B(O)O)cc1)C(=O)N[C@@H](Cc1ccc(O)cc1)C(=O)O (H-KK(Acridin9yl)KKK(Acridin9yl)KKLK(Benzoyl(4-B(OH)2))Y-OH) is ___
> 100
